B1: ZNF207 (parent)
chain: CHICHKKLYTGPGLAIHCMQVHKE

variants of: B1; assay: protein stability index of a GFP-peptide fusion (GPS, HEK-293T) (PSI 1-6); higher = more stable; conditions: c terminus: a fixed tail appended;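 also: lentivirally expressed fusions sorted by FACS into six bins by GFP to DsRed ratio, PSI derived from sequencing read proportions per bin multiplied by bin number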
Tick T if protein stability index is 3 or greater. Tick F if protein stability index is less than 3.

Sample answers from the record:
Task: Kindly determine if protein stability index recorded for H2D is above or exactly 3.
Result: T

Task: Kindly determine if protein stability index recorded for I3V is above or exactly 3.
Result: F

Task: Reported protein stability index at or above 3? L14D
Result: T

Task: Form field: protein stability index at least 3? Entry: C4L
Result: F

Task: Entry G13I : is its protein stability index no less than 3?
Result: F

Task: Could you please find out whether C1D has protein stability index that meets 3 or exceeds it?
Result: F

Task: protein stability index >= 3 for A15C ?
Result: T

Task: Determine whether this variant has protein stability index no lower than 3: H17Y
Result: F

***
Task: Reported protein stability index at or above 3? H5I
Result: F

Task: Hi team, for L14Q , is the recorded protein stability index at or above 3?
Result: T

Task: Confirm if protein stability index reported for the variant I16N is 3 or above.
Result: T

Task: Test whether the variant M19D records protein stability index of 3 or higher.
Result: T

Task: Item Y9L with protein stability index of 3 or above?
Result: T

Task: Hi, just wondering whether H22M shows protein stability index of 3 or higher.
Result: F

Task: Can C18N be said to have protein stability index at or above 3?
Result: F

Task: Evaluate Q20V : protein stability index at minimum 3?
Result: T

Task: Please check the record L14T and state if its protein stability index is at or above 3.
Result: T

Task: Textbook exercise: given the entry G11I , state whether its protein stability index is greater than or equal to 3.
Result: F

Task: Assess whether reported protein stability index for K23S sits at 3 or higher.
Result: T

Task: Assess whether reported protein stability index for C18Y sits at 3 or higher.
Result: F
